# System: SW-620 colon
# measurement_protocol: NCI tumour cell line growth inhibition, 48 h
value_type: TGI

INSERT INTO assay_data (molecule, tested_system, value_type, observed) VALUES
  ('CCN(C(=O)N[C@H](C(=O)N[C@@H](CSC)C(=O)N[C@@H](C)C(=O)OC)C(C)C)c1ccccc1', 'SW-620 colon', 'TGI', '28 µM'),
  ('N#CC1=C(N)N(/N=C/c2ccco2)C(c2ccco2)C1(C#N)C#N (configuration not stated)', 'SW-620 colon', 'TGI', '24.5 µM'),
  ('CN1C(=O)C23CCCC2CC1(c1ccccc1)S3 (configuration not stated)', 'SW-620 colon', 'TGI', '> 100 µM'),
  ('CC12CCc3ccccc3C1=NNC(=O)C2 (configuration not stated)', 'SW-620 colon', 'TGI', '> 100 µM'),
  ('COc1ccc(-c2c(-c3ccc(C#N)c(F)c3)nc(N3CCC(N)CC3)n(C)c2=O)cc1F', 'SW-620 colon', 'TGI', '96.2 µM'),
  ('COc1ccc2c(c1)/c(=C/C#N)c1c3ccccc3[n+](C)n21', 'SW-620 colon', 'TGI', '> 39.2 µM'),
  ('C=C(C)CCC1C=[N+]([O-])OC(C)(C)C1(C)C (configuration not stated)', 'SW-620 colon', 'TGI', '> 100 µM'),
  ('CCN(CC)c1c(C)nnn1C1OC(COC(C)=O)C(OC(C)=O)C(OC(C)=O)C1OC(C)=O (configuration not stated)', 'SW-620 colon', 'TGI', '31.3 µM'),
  ('COc1ccccc1C(=O)OCC1CCCN2CCCCC12 (configuration not stated)', 'SW-620 colon', 'TGI', '> 100 µM'),
  ('Cc1cc(Br)ccc1N=Nc1c(C)nn(-c2ccccc2)c1-c1ccccc1', 'SW-620 colon', 'TGI', '> 100 µM'),
  ('C=CCOC(=O)Cn1ccc(=O)[nH]c1=O', 'SW-620 colon', 'TGI', '> 100 µM'),
  ('Cc1cc(N(CCNc2ccnc3cc(Cl)ccc23)Cc2ccc3c(c2)OCO3)nc(N2CCCC2)n1', 'SW-620 colon', 'TGI', '2.94 µM'),
  ('CC(=O)NC(C)(C)C1CCC(C)CC1 (configuration not stated)', 'SW-620 colon', 'TGI', '> 100 µM'),
  ('Cc1nc2ccc(NC3OCC(O)C(O)C3O)cc2c(=O)n1-c1ccccc1 (configuration not stated)', 'SW-620 colon', 'TGI', '> 100 µM'),
  ('CCCCCCCCN=C(NCCCCCCCC)SCc1cccc2ccccc12', 'SW-620 colon', 'TGI', '3.36 µM'),
  ('CSc1nc(NCc2ccccc2)c2cnn(COCCO)c2n1', 'SW-620 colon', 'TGI', '> 100 µM'),
  ('CN(C)S(=O)(=O)c1nc(Cl)c2[nH]cnc2n1', 'SW-620 colon', 'TGI', '> 100 µM'),
  ('CNC(=O)CNC(=O)N(C[C@@H]1CCCN1C(=O)[C@H](CC(C)C)NC(=O)OC(C)(C)C)C(C)C', 'SW-620 colon', 'TGI', '> 100 µM'),
  ('CN1CCN(c2nc(N)c(Br)c(Cl)n2)CC1', 'SW-620 colon', 'TGI', '> 100 µM'),
  ('COc1ccc2c3/c(=C\c4ccc(N(C)C)cc4)c4ccccc4n3[n+](C)c2c1', 'SW-620 colon', 'TGI', '> 100 µM'),
  ('Cc1cc(C)c2c(n1)S(=O)(=O)N(CCCN1CCN(c3cccc(Cl)c3)CC1)/C(=C(\O)c1ccc(Br)cc1)C2=O', 'SW-620 colon', 'TGI', '> 100 µM'),
  ('CN(C)CCCn1c(Cn2nc3ccccc3n2)nc2cc(C(F)(F)F)ccc21', 'SW-620 colon', 'TGI', '> 100 µM');
